assayed system: interaction between p53 and MDM2 proteins (Homo sapiens)
Sequence (Q00987 whole entry): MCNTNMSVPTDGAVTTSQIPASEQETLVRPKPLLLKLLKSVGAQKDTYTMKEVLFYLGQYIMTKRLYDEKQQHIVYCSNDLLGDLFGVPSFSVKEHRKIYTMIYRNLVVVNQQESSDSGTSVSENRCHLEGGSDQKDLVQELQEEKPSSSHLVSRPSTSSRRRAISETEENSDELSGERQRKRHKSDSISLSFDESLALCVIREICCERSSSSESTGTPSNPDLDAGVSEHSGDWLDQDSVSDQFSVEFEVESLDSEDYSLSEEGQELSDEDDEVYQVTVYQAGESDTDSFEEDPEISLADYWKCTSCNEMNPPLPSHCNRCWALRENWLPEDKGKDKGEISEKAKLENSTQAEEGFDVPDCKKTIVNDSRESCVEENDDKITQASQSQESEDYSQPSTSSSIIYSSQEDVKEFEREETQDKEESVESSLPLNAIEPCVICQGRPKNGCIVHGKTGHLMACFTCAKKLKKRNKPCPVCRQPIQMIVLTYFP
assay text: HTRF assay of inhibition of p53-MDM2 interaction (GST-MDM2 binding to biotinylated p53 peptide)
setup conditions: recombinant GST-tagged MDM2, biotinylated p53 peptide, 0.2% BSA
List of IC50 values.
readout name: IC50

1) CCOc1nc(C(C)(C)C)ncc1C1=N[C@@](C)(c2ccc(Cl)cc2)[C@@](C)(c2ccc(Cl)cc2)N1C(=O)N1CCN(C2CCS(=O)(=O)CC2)CC1    0.046 µM
2) CCOc1nc(C(C)(C)C)ccc1C1=N[C@@](C)(c2ccc(Cl)cc2)[C@@](C)(c2ccc(Cl)cc2)N1C(=O)N1CCN(CCCS(C)(=O)=O)CC1 (racemic)    0.178 µM
3) CCOc1nc(C(C)(C)C)ncc1C1=N[C@@](C)(c2ccc(Cl)cc2)[C@@](C)(c2ccc(Cl)cc2)N1C(=O)N1CCN(CCOCCO)CC1    0.031 µM
4) CCOc1nc(C(C)(C)C)ncc1C1=N[C@@](C)(c2ccc(Cl)cc2)[C@@](C)(c2ccc(Cl)cc2)N1C(=O)N1CCN(CC(=O)N2CCOCC2)CC1 (racemic)    0.077 µM
5) CCOc1nc(C(C)(C)C)ncc1C1=N[C@@](C)(c2ccc(Cl)cc2)[C@@](C)(c2ccc(Cl)cc2)N1C(=O)N1CCC(N2CCCC2)CC1 (racemic)    0.252 µM

The reported numbers originate from patent US8513239B2.
